// data source = the supplement of paper PMC11246515

Overview of reported total protein half-life in vivo across a group of sequences:
Experiment: total protein half-life in vivo (active degradation + dilution); higher = more stable protein
Conditions: wild type E. coli NCM3722; growth: P-lim chemostat; doubling time 12 h
Property name: total protein half-life in vivo (h)

INSERT INTO results (sequence_input, scale_unit, result) VALUES
  ('MPSFDIVSEVDLQEARNAVDNASREVESRFDFRNVEASFELNDASKTIKVLSESDFQVNQLLDILRAKLLKRGIEGSSLDVPENIVHSGKTWFVEAKLKQGIESATQKKIVKMIKDSKLKVQAQIQGDEIRVTGKSRDDLQAVMAMVRGGDLGQPFQFKNFRD [P0A8E7]', 'h', 12.7),
  ('MRNLVKYVGIGLLVMGLAACDDKDTNATAQGSVAESNATGNPVNLLDGKLSFSLPADMTDQSGKLGTQANNMHVWSDATGQKAVIVIMGDDPKEDLAVLAKRLEDQQRSRDPQLQVVTNKAIELKGHKMQQLDSIISAKGQTAYSSVILGNVGNQLLTMQITLPADDQQKAQTTAENIINTLVIQ [P0AEE1]', 'h', 10.9),
  ('MENNEIQSVLMNALSLQEVHVSGDGSHFQVIAVGELFDGMSRVKKQQTVYGPLMEYIADNRIHAVSIKAYTPAEWARDRKLNGF [P0A9W6]', 'h', 10.8),
  ('MRYRIFLLFFFALLPTSLVWAAPAQRAFSDWQVTCNNQNFCVARNTGDHNGLVMTLSRSAGAHTDAVLRIERGGLKSPEASEGEIAPRLLLDGEPLALSGDKWRISPWLLVTDDTATITAFLQMIQEGKAITLRDGDQTISLSGLKAALLFIDAQQKRVGSETAWIKKGDEPPLSVPPAPALKEVAVVNPTPTPLSLEERNDLLDYGNWRMNGLRCSLDPLRREVNVTALTDDKALMMISCEAGAYNTIDLAWIVSRKKPLASRPVRLRLPFNNGQETNELELMNATFDEKSRELVTLAKGRGLSDCGIQARWRFDGQRFRLVRYAAEPTCDNWHGPDAWPTLWITR', 'h', 9.92);

---

Test: total protein half-life in vivo (active degradation + dilution); higher = more stable protein
Details: E. coli NCM3722 delta-lon; growth: N-lim chemostat; doubling time 6 h
Property name: total protein half-life in vivo (h)

INSERT INTO measurements (sequence_input, property_name, result) VALUES
  ('MLYVIYAQDKADSLEKRLSVRPAHLARLQLLHDEGRLLTAGPMPAVDSNDPGAAGFTGSTVIAEFESLEAAQAWADADPYVAAGVYEHVSVKPFKKVF [P0AB55]', 'total protein half-life in vivo', 5.1),
  ('MIEADRLISAGTTLPEDVADRAIRPKLLEEYVGQPQVRSQMEIFIKAAKLRGDALDHLLIFGPPGLGKTTLANIVANEMGVNLRTTSGPVLEKAGDLAAMLTNLEPHDVLFIDEIHRLSPVVEEVLYPAMEDYQLDIMIGEGPAARSIKIDLPPFTLIGATTRAGSLTSPLRDRFGIVQRLEFYQVPDLQYIVSRSARFMGLEMSDDGALEVARRARGTPRIANRLLRRVRDFAEVKHDGTISADIAAQALDMLNVDAEGFDYMDRKLLLAVIDKFFGGPVGLDNLAAAIGEERETIEDVLEPYLIQQGFLQRTPRGRMATTRAWNHFGITPPEMP [P0A812]', 'total protein half-life in vivo', 2.7),
  ('MNKTQLIDVIAEKAELSKTQAKAALESTLAAITESLKEGDAVQLVGFGTFKVNHRAERTGRNPQTGKEIKIAAANVPAFVSGKALKDAVK [P0ACF0]', 'total protein half-life in vivo', 6.06),
  ('MYKTIIMPVDVFEMELSDKAVRHAEFLAQDDGVIHLLHVLPGSASLSLHRFAADVRRFEEHLQHEAQERLQTMVSHFTIDPSRIKQHVRFGSVRDEVNELAEELGADVVVIGSRNPSISTHLLGSNASSVIRHANLPVLVVR', 'total protein half-life in vivo', 4.71),
  ('MSSNTFTLGTKSVNRLGYGAMQLAGPGVFGPPRDRHVAITVLREALALGVNHIDTSDFYGPHVTNQIIREALYPYSDDLTIVTKIGARRGEDASWLPAFSPAELQKAVHDNLRNLGLDVLDVVNLRVMMGDGHGPAEGSIEASLTVLAEMQQQGLVKHIGLSNVTPTQVAEARKIAEIVCVQNEYNIAHRADDAMIDALAHDGIAYVPFFPLGGFTPLQSSTLSDVAASLGATPMQVALAWLLQRSPNILLIPGTSSVAHLRENMAAEKLHLSEEVLSTLDGISRE', 'total protein half-life in vivo', 4.74),
  ('MKHTVEVMIPEAEIKARIAELGRQITERYKDSGSDMVLVGLLRGSFMFMADLCREVQVSHEVDFMTASSYGSGMSTTRDVKILKDLDEDIRGKDVLIVEDIIDSGNTLSKVREILSLREPKSLAICTLLDKPSRREVNVPVEFIGFSIPDEFVVGYGIDYAQRYRHLPYIGKVILLDE [P0A9M2]', 'total protein half-life in vivo', 5.16),
  ('MKKWAVIISAVGLAFAVSGCSSDYVMATKDGRMILTDGKPEIDDDTGLVSYHDQQGNAMQINRDDVSQIIER', 'total protein half-life in vivo', 6.65),
  ('METFNSLFMVSPLLLGVLFFVAMLAGFIDSIAGGGGLLTIPALMAAGMSPANALATNKLQACGGSISATIYFIRRKVVSLSDQKLNIAMTFVGSMSGALLVQYVQADVLRQILPILVICIGLYFLLMPKLGEEDRQRRMYGLPFALIAGGCVGFYDGFFGPAAGSFYALAFVTLCGFNLAKATAHAKLLNATSNIGGLLLFILGGKVIWATGFVMLVGQFLGARMGSRLVLSKGQKLIRPMIVIVSAVMSAKLLYDSHGQEILHWLGMN [P0AD30]', 'total protein half-life in vivo', 6.29);
